Provenance of the data: the supplement of paper PMC10567573

PROTOCOL NOTES: protein stability index of a GFP-peptide fusion (GPS, HEK-293T) (PSI 1-6); higher = more stable;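 further: 24-mer peptide tiles fused after GFP, lentivirally expressed, FACS-sorted into six equal bins by GFP/DsRed ratio, decoded by Illumina sequencing, PSI is the read-weighted mean bin number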
APPLIED CONDITIONS: treatment: DMSO; c terminus: a fixed tail appended
Tag: yes if measured protein stability index is not below 3, no if it is.

>>> class_name("ESSVPSTVGCSSQHTPDQANSDRA [PLEKHN1]")
"yes"
>>> class_name("GEGEPGQGEGPEAGDAEVCPTPAR [NOP53]")
"yes"
>>> class_name("SRILNEMRDQYEQMAEKNRRDAET [KRT16]")
"yes"
>>> class_name("PEPLFLGEEDFSLSATIGSILREL [SERTAD3]")
"no"
>>> class_name("CPPLHIPGSMSEVQELCKQLHAKI [TNNI2]")
"no"
>>> class_name("GKTYCKRDYVRLFGIKCAKCQVGF [ISL2]")
"no"
>>> class_name("IWAKTPPITRKAAQLYTLWVTFQV [DHCR7]")
"yes"
>>> class_name("QQIGDAIRMIVRGTLGSCSSSSEC [PLK2]")
"no"
>>> class_name("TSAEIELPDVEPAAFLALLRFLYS [BTBD1]")
"no"
>>> class_name("ADQKLVIIKQIPVEQMTKEERQAA [NEK8]")
"yes"
>>> class_name("PPAPAPLPPPSAPSLQPSRKLSPT [SCAMP3]")
"yes"
>>> class_name("KYREAARLEINVLKKIKEKDKENK [CLK3]")
"yes"
>>> class_name("PDLPFQIKPSENHYSLLTSQPLDR [PCDHGC5]")
"yes"
>>> class_name("YLHTNVALVAPLLRLENNHCHIEE [VPS39]")
"no"
>>> class_name("VGGVLRGLNHSLSYDVALHRTRLQ [SCARA5]")
"no"
>>> class_name("RRCTNIRPGETGMDVTSRCTLGDP [KLHL20]")
"yes"
>>> class_name("LLPQERPLMQGPRTRPRKPIRCGE [KLHL20]")
"yes"
>>> class_name("GLNHSLSYDVALHRTRLQDLRVLV [SCARA5]")
"no"
>>> class_name("FMVVDLLLGGDLRYHLQQNVHFKE [STK32A]")
"no"
>>> class_name("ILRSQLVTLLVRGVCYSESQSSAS [CLCN6]")
"no"
>>> class_name("VTTTSSASVTTTSNASGRRTSDVR [KRT13]")
"yes"
>>> class_name("TGLVGLFVDFFVRLFTQLKFGVVQ [CLCN6]")
"no"
>>> class_name("VIYNYVQRPFIRMSWEKEEGKSRH [BTBD10]")
"no"
>>> class_name("MGCHGFRDPFECNMCGYHSQDRYE [IKZF1]")
"yes"
>>> class_name("FLPGYVGGIQEGAVTPAGVVNKYQ [DHCR7]")
"yes"
>>> class_name("LNVQKTVDYTGQAKAQVRKAVQYE [STX11]")
"yes"
>>> class_name("ILTERVSLPFKPFAIILPILLNIR [MIA2]")
"no"
>>> class_name("IPSEEWPNPPTLQEAGLSHTEVLF [FAF2]")
"yes"
>>> class_name("LNLGPALSAALASSQKQHSFTSSD [C8orf76]")
"yes"
>>> class_name("GNPFLDVPQALSATTYKHGVLTRK [PSD2]")
"yes"
>>> class_name("LVYENFYADFGPLNLAMVYRYCCK [CDC14A]")
"no"
>>> class_name("LLAHRLRRWHKSRLLQASGGGLTG [PCDHGA10]")
"no"
>>> class_name("ELEKAHLALIDYLTQKRSQLVKKL [VPS39]")
"no"
>>> class_name("VAAAASRGADDAMESSKPGPVQVV [ATL3]")
"yes"
>>> class_name("TWAMRQRGTHAVVGVATADAPLHS [SPSB1]")
"no"
>>> class_name("LAVMGYDRYIAICNPLRYSVLMGH [OR10K2]")
"no"
>>> class_name("SNLSVENVADTLVLADLHSAEQLK [SPOPL]")
"yes"
>>> class_name("LVQLRNMVQQIQENSVEFEACLVA [TRIM9]")
"no"
>>> class_name("DPESERALQAPHSPSKTDGKELAG [PBXIP1]")
"yes"
>>> class_name("LNDIFHLLKSHTNVLSVNLPDNFT [TPH1]")
"no"
>>> class_name("WLPLHYAAWQGHLPIVKLLAKQPG [RIPK4]")
"no"
>>> class_name("NHGQVVSYLLKSGADKEILTTKGE [ANKRD40]")
"yes"
>>> class_name("LHLAAQGRHAQTVETLLRHGAHIN [RIPK4]")
"no"
>>> class_name("IRSMDPSALASDRFNLILADTNSD [DCAF4]")
"yes"
>>> class_name("EEDNVEESEEEGPWEPPVLPILTW [HDAC6]")
"yes"
>>> class_name("EKGLPLRKTHVLLGRSHDTVQEAA [MFSD9]")
"yes"
>>> class_name("ALMRMLDNLGYRTGYPYRYPALRE [ADD1]")
"no"
>>> class_name("IWFIVPISCVICNDIMAYMFGFFF [CDS2]")
"yes"
>>> class_name("FSTWNLDHIIEKKRTIIPTLVEAI [DFFB]")
"no"
>>> class_name("PQQHFLEEKQASLWVQGDIFRSKL [CDC14A]")
"yes"
